target.system: IRAK4 (Homo sapiens, UniProt Q9NWZ3)
Construct: endogenous in cells; host or cells: OCI-LY10
Sequence (Q9NWZ3 1-460): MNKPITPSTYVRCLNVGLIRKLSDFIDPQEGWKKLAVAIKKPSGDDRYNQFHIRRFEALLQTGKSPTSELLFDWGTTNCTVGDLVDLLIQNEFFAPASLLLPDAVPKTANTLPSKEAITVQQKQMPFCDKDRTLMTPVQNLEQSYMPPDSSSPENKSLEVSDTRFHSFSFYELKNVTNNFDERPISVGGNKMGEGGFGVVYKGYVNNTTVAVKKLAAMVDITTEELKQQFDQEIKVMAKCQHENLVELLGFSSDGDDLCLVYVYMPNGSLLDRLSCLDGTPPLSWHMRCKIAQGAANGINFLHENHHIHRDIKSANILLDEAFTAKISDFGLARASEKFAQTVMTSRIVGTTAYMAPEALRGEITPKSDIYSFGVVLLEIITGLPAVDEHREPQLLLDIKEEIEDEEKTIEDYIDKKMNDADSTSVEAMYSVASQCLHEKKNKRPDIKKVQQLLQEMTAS
experiment.summary: IRAK4 MSD Degradation in OCI-LY10
Type: cell-based
condition.notes: OCI-LY10 cells, 4 hrs incubation, read-out: IRAK4 degradation in OCI-LY10 at 4 hrs: DC50
Reported DC50 is given for each of the following compounds.

Here is how some compounds turned out for DC50.
Cn1c(=O)n(C2CCC(=O)NC2=O)c2cccc(OCC3CCN(C[C@H]4CC[C@H](n5cc6cc(NC(=O)c7cccc(C(F)(F)F)n7)c(C(F)F)cc6n5)CC4)CC3)c21 (stereo partly shown) = < 50 nM
Cn1c(=O)n(C2CCC(=O)NC2=O)c2cccc(CCN3CC4(CCN(C(=O)[C@H]5CC[C@H](n6cc7cc(NC(=O)c8cccc(C(F)(F)F)n8)c(C(C)(C)O)cc7n6)CC5)CC4)C3)c21 (stereo partly shown) = < 50 nM
Cn1c(=O)n(C2CCC(=O)NC2=O)c2cccc(CCCC3CCN(C[C@H]4CC[C@H](n5cc6cc(NC(=O)c7cccc(C(F)(F)F)n7)c(N7C[C@@H]8C[C@H]7CO8)cc6n5)CC4)CC3)c21 (stereo partly shown) = 50 to 100 nM

Consider the compound Cn1c(=O)n(C2CCC(=O)NC2=O)c2cccc(CCC3CCN(C[C@H]4CC[C@H](n5cc6cc(NC(=O)c7cccc(C(F)(F)F)n7)c(C(F)F)cc6n5)CC4)CC3)c21 (stereo partly shown) and give its measured DC50. < 50 nM

Consider the compound COc1cc2nn([C@H]3CC[C@H](CN4CCC5(CC4)CC(CNc4cccc6c4C(=O)N(C4CCC(=O)NC4=O)C6=O)C5)CC3)cc2cc1NC(=O)c1cccc(C(F)(F)F)n1 (stereo partly shown) and give its measured DC50. < 50 nM

Consider the compound COc1cc2nn([C@H]3CC[C@H](CN4CCC(c5cccc6c5n(C)c(=O)n6C5CCC(=O)NC5=O)CC4)CC3)cc2cc1NC(=O)c1cccc(C(C)(C)F)n1 (stereo partly shown) and give its measured DC50. 50 to 100 nM

Consider the compound COc1cc2nn([C@H]3CC[C@H](CN4CCC(c5cccc6c5n(C)c(=O)n6C5CCC(=O)NC5=O)CC4)CC3)cc2cc1NC(=O)c1cccc(C(F)(F)F)n1 (stereo partly shown) and give its measured DC50. < 50 nM

Consider the compound Cn1c(=O)n(C2CCC(=O)NC2=O)c2cccc(OCC3CCN(C[C@H]4CC[C@H](n5cc6cc(NC(=O)c7cccc(C(F)(F)F)n7)c(C(C)(C)O)cc6n5)CC4)CC3)c21 (stereo partly shown) and give its measured DC50. < 50 nM

Consider the compound COc1cc2nn([C@H]3CC[C@H](CN(C)C4CCN(c5cccc6c5n(C)c(=O)n6C5CCC(=O)NC5=O)CC4)CC3)cc2cc1NC(=O)c1ccccn1 (stereo partly shown) and give its measured DC50. < 50 nM

Consider the compound COc1cc2nn([C@H]3CC[C@H](CN4CCC(c5cccc6c5n(C)c(=O)n6C5CCC(=O)NC5=O)CC4)CC3)cc2cc1NC(=O)c1cccc(C)n1 (stereo partly shown) and give its measured DC50. < 50 nM

Consider the compound Cn1c(=O)n(C2CCC(=O)NC2=O)c2cccc(CCOC3CCN(C[C@H]4CC[C@H](n5cc6cc(NC(=O)c7cccc(C(F)(F)F)n7)c(C(F)F)cc6n5)CC4)CC3)c21 (stereo partly shown) and give its measured DC50. 50 to 100 nM

Consider the compound Cn1c(=O)n(C2CCC(=O)NC2=O)c2cccc(N3C[C@H]4C[C@@H]3CN4C[C@H]3CC[C@H](n4cc5cc(NC(=O)c6cccc(C(F)(F)F)n6)c(C(C)(C)O)cc5n4)CC3)c21 (stereo partly shown) and give its measured DC50. < 50 nM

Consider the compound CN(CCCO[C@H]1C[C@H](Cc2cccc3c2n(C)c(=O)n3C2CCC(=O)NC2=O)C1)C[C@H]1CC[C@H](n2cc3cc(NC(=O)c4cccc(C(F)(F)F)n4)c(C(C)(C)O)cc3n2)CC1 (stereo partly shown) and give its measured DC50. < 50 nM

Consider the compound Cn1c(=O)n(C2CCC(=O)NC2=O)c2cccc(CCC3CC4(CCN(C[C@H]5CC[C@H](n6cc7cc(NC(=O)c8cccc(OC(F)(F)F)n8)c(C(C)(C)O)cc7n6)CC5)CC4)C3)c21 (stereo partly shown) [I-108] and give its measured DC50. 50 to 100 nM

Consider the compound Cn1c(=O)n(C2CCC(=O)NC2=O)c2cccc(C3CCN(C[C@H]4CC[C@H](n5cc6cc(NC(=O)c7cccc(C(F)(F)F)n7)c(C(C)(C)O)cc6n5)CC4)CC3)c21 (stereo partly shown) and give its measured DC50. < 50 nM

Consider the compound Cn1c(=O)n(C2CCC(=O)NC2=O)c2cccc(N3CCN(C[C@H]4CC[C@H](n5cc6cc(NC(=O)c7cccc(C(F)(F)F)n7)c(C(C)(C)O)cc6n5)CC4)CC3)c21 (stereo partly shown) and give its measured DC50. < 50 nM

Consider the compound COc1cc2nn([C@H]3CC[C@H](CN4CCC5(CC4)CC(CCc4cccc6c4n(C)c(=O)n6C4CCC(=O)NC4=O)C5)CC3)cc2cc1NC(=O)c1cccc(C(F)(F)F)n1 (stereo partly shown) and give its measured DC50. 50 to 100 nM

Consider the compound COc1cc2nn([C@H]3CC[C@H](CN4CCC5(CC4)CC(CCNc4cccc6c4C(=O)N(C4CCC(=O)NC4=O)C6=O)C5)CC3)cc2cc1NC(=O)c1cccc(C(C)(F)F)n1 (stereo partly shown) and give its measured DC50. < 50 nM

Consider the compound COc1cc2nn([C@H]3CC[C@H](CN4CC(c5ccc6c(c5)n(C)c(=O)n6C5CCC(=O)NC5=O)C4)CC3)cc2cc1NC(=O)c1cccc(C(C)(C)F)n1 (stereo partly shown) and give its measured DC50. < 50 nM
